Experiment: amyloid nucleation score (Sup35N fusion, yeast selection) (log enrichment); library NNK3; higher = more nucleation; inactive = no reads after selection;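 further: zero at mode of non-aggregating sequences after 7 days selection at 30°C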

| substance | amyloid nucleation score |
| --- | --- |
| FFLSTTGSMPHFPFKVSSSF | 0.088 |
| CLLPFTTGYDFFLHQIEGWG | inactive |
| LVRCRVVWDLL | inactive |
| SRPFICSPFQIWAFKFTPMN | inactive |
| VFSVHVWQCSNLFQRMLCNF | 1.06 |
| LFDFHSSCKSAVIAYLLSRR | 0.138 |
| NSIILFWRLSRGVYSFLPHK | inactive |
| YAARNWIVQVD | inactive |
| TQMILWVM | inactive |
| QHLLYSPIEPIVPSVWDIVD | inactive |
| KYIIWLLDDSDLI | inactive |
| SISWRYWKSI | inactive |
| SFLCLISIHCTDNDNGMHNC | inactive |
| SWIVNKVF | inactive |
| QYTFVGDLMVDLITKTVMLM | inactive |
| ICYSNDSLYMLLESS | inactive |
| CSLQNVTVGLLHSQVVSRWE | inactive |
| QCCIMAITLDYFASPRYIVR | 0.022 |
| FVQNDNYKWVWL | inactive |
| DERKNSIDSR | inactive |
| HAFEYVFISVTYQFNVKVIV | inactive |
| KCLLGLSLVRAKRSKLWMW | inactive |
| FYYPRS | inactive |
| ENMIRFLRDSLCGSFYNLPL | inactive |
| SCWYETMLFSLCKFKYLGLM | inactive |
| RTWDLDVGVLRLWVLSIG | inactive |
| VGMISCKTILEFGGMSSFVM | inactive |
| FTHNHK | inactive |
| AIRGMNAERNR | inactive |
| HSRYLMQLYVNSFSRFD | 1.28 |
| TLSCYECPVVVRILVVRNCV | inactive |
| FSMSPSTTYRAFGHYSPGQH | -0.074 |
| NIGYSMLESPFIIIDICNSC | 0.619 |
| SVGLDRTSQEHSAYVGNVHS | inactive |
| IFSRLGFVCLIMFTC | inactive |
| IYTARIVTFCTFFRRY | inactive |
| YLWTTLCKPRVDFRAEYRDL | 2.05 |
| CNVLEKYTLE | inactive |
| KYTNTACLSRASIGNMIGQF | inactive |
| PTSFQYRCVSI | inactive |
| VLLVCFLRTRKCSRLLAC | inactive |
| SSLFLDCGFGV | inactive |
| NMFCVPYVKVESGCIMKRGN | 1.91 |

* * *

Test: amyloid nucleation score (Sup35N fusion, yeast selection) (log enrichment); library NNK1; higher = more nucleation; inactive = no reads after selection
Quick rule for you: amyloid nucleation score at 0.5 or higher means MET, lower means NOT MET.

| substance | class.label |
| --- | --- |
| INFRHA | MET |
| QLPCDRISSDALYRMWGLV | NOT MET |
| TRKWEYTSKVRVQRGSVYLL | NOT MET |
| VPNASLSWISFISHLFYMSS | NOT MET |
| VYESGRCNLACRMFARDGCS | NOT MET |
| GEVSRWRMCGLSLMEGRGLQ | MET |
| MVCTYNVRCIEMETRYPRSR | MET |
| NLHVQGVTRNGC | MET |
| FVKNSKHYRPFLNGSKRM | NOT MET |
| VTACGYRMRRCRCFCECNGT | MET |
| VRACSCMDCDTVYRNVLSMG | NOT MET |
| VAMRIWLVNACLGG | NOT MET |
